Measured Target: EGFR kinase (Homo sapiens, UniProt P00533)
Construct: purchased Sigma E-3641
Sequence (P00533 25-1210): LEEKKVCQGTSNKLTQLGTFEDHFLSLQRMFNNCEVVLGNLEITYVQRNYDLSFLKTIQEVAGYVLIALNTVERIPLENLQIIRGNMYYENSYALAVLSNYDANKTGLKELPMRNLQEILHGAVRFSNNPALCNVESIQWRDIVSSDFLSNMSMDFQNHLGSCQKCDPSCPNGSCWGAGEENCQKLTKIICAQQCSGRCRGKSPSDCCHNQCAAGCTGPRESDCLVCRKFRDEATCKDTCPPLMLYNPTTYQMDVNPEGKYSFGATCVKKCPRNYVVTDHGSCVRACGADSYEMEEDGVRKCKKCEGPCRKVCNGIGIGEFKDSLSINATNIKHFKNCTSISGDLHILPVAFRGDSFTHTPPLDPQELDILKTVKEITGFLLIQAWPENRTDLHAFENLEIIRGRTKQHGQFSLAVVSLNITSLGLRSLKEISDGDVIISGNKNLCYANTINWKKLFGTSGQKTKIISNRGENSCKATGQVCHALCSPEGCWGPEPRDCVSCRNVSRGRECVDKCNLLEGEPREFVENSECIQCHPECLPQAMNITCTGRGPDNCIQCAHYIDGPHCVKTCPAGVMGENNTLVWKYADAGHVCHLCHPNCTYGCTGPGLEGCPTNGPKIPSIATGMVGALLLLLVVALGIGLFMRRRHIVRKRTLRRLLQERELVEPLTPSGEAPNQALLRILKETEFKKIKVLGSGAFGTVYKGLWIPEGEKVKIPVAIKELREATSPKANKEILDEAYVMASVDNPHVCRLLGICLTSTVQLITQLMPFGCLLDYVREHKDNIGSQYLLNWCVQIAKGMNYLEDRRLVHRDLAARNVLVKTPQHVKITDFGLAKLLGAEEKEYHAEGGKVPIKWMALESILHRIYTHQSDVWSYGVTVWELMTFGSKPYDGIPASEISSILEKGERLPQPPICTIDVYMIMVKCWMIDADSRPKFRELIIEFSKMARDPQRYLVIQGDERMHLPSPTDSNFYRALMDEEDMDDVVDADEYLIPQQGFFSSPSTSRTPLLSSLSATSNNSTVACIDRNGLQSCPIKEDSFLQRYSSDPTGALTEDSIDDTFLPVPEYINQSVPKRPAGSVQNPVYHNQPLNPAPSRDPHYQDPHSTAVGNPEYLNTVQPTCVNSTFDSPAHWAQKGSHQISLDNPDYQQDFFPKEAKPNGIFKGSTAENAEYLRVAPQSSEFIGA
Assay Text: EGFR tyrosine kinase enzyme inhibition assay (cell free, DELFIA time resolved fluorescence)
Type: biochemical
Measurement Parameters: cell free kinase assay, 25 μM ATP; read-out: IC50 (nM) EGFR kinase activity
Structures can show the parent of a compound that is named as a salt.
Hi! Could you tag entries with IC50 below 0.8 nM as yes (1), and those at or above as no (0)? Much appreciated.

I wonder whether CNC/C=C/C(=O)Nc1cc2c(Nc3ccc(F)c(Cl)c3)c(C#N)cnc2cc1OCCF.Cl [compound 24, hydrochloride] has IC50 below 0.8 nM. Can you tell? yes (1)

# check: IC50 < 0.8 nM for CCOc1cc2ncc(C#N)c(Nc3ccc(F)c(Cl)c3)c2cc1NC(=O)/C=C/CN(C)Cc1ccc(F)cc1 [compound 14] yes (1)

Just wondering, is IC50 of CCOc1cc2ncc(C#N)c(Nc3ccc(F)c(Cl)c3)c2cc1NC(=O)/C=C/CNCc1cn(CCF)nn1 [compound 17, hydrochloride] below 0.8 nM? no (0)

Identify whether the compound CCOc1cc2ncc(C#N)c(Nc3ccc(F)c(Cl)c3)c2cc1NC(=O)/C=C/CNC [compound 10] records IC50 below 0.8 nM. yes (1)

###

Measured Target: EGFR autophosphorylation in A431 cells (Homo sapiens, UniProt P00533)
Construct: highly EGFR-expressing A431 cells; endogenous in cells; host or cells: A431 human epidermoid cancer cells (ATCC)
Assay Text: Inhibition of EGFR autophosphorylation in A431 cells (Western blot p-EGFR/total EGFR)
Format: cell-based
Measurement Parameters: 3 h drug incubation then washing with drug free medium, mean ± sem, n = 3
Description: The ability of the compounds to be transported across cell membranes and to inhibit EGFR autophosphorylation was examined in highly EGFR-expressing A431 cells. The cells were maintained in DMEM (Sigma-Aldrich Company Ltd, Dorset, UK) supplemented with 10% fetal bovine serum (Lonza, UK), and 2 mM L-glutamine, 100 U/ml penicillin, 100 μg/mL streptomycin and 1 μg/mL fungizone (GIBCO) in 6 well plates incubated at 37° C. in a humidified incubator with 5% CO2. […]
Structures can show the parent of a compound that is named as a salt.
Outcome Measure: IC50
State the value, then name its unit.

I would be grateful if you could share the reported IC50 for CCOc1cc2ncc(C#N)c(Nc3ccc(F)c(Cl)c3)c2cc1NC(=O)/C=C/CNCc1cn(CCF)nn1 [compound 17, hydrochloride] . 22 nM

Data request, read-out IC50, for CCOc1cc2ncc(C#N)c(Nc3ccc(F)c(Cl)c3)c2cc1NC(=O)/C=C/CN(C)CCF [compound 13] 23 nM

Give the measured IC50 of CCOc1cc2ncc(C#N)c(Nc3ccc(F)c(Cl)c3)c2cc1NC(=O)/C=C/CNC [compound 10] . 5.35 nM

Please look up its IC50: CNC/C=C/C(=O)Nc1cc2c(Nc3ccc(F)c(Cl)c3)c(C#N)cnc2cc1OCCF.Cl [compound 24, hydrochloride] 8.12 nM

Using the record for C#CCNC/C=C/C(=O)Nc1cc2c(Nc3ccc(F)c(Cl)c3)c(C#N)cnc2cc1OCC.Cl [compound 25, hydrochloride] , report its IC50. 60.2 nM

Entry CCOc1cc2ncc(C#N)c(Nc3ccc(F)c(Cl)c3)c2cc1NC(=O)/C=C/CN(C)Cc1ccc(F)cc1 [compound 14] has what IC50? 16.5 nM

Hey, just so you know, these numbers are from patent US20130116206A1.
